- assayed.system: HIV Env of isolate WEAU_d15_410_5017 (clade B) (HIV)
- protocol.notes: cell-based or functional assay
readout.kind: IC50 (µg/ml) with constrains (µg/mL)
Give your result in µg/mL as a bare value.

Supply measured IC50 (µg/ml) with constrains of ePGDM13 (antibody, V domains shown) VH: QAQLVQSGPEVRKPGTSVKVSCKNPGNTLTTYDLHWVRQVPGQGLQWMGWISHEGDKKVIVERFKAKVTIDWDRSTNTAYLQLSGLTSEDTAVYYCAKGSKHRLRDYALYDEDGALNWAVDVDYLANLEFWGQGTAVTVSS VL: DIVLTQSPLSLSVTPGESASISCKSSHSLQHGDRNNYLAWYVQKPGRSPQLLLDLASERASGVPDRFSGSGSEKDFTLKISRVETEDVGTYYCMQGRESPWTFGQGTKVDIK in your reply.
0.003

Supply measured IC50 (µg/ml) with constrains of PGDM1400 (antibody, V domains shown) VH: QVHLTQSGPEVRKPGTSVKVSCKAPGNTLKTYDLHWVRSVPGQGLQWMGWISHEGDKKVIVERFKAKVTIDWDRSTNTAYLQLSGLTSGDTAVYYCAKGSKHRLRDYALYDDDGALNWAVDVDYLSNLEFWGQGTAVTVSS VL: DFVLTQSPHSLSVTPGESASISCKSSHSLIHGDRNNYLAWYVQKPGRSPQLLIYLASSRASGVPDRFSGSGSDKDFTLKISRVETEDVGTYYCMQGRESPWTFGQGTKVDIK in your reply.
0.075

Supply measured IC50 (µg/ml) with constrains of ePGDM9 (antibody, V domains shown) VH: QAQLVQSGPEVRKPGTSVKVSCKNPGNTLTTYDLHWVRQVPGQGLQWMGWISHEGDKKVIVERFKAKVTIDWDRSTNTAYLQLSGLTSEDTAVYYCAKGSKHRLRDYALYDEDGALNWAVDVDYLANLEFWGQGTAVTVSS VL: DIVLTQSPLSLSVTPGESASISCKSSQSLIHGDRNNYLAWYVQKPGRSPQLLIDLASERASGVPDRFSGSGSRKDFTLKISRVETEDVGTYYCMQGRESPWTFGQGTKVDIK in your reply.
0.002
